Literature roundup of RAC-beta serine/threonine-protein kinase (Homo sapiens) data, read-out pIC50.
pIC50: −log10 of the molar value.

Observe how each entry below is paired with its result.
Q: Give measured pIC50 for CC(C)OCc1cnn(C)c1-c1cc2c(cn1)C(=O)N([C@H](CN)Cc1cc(F)cc(F)c1)C2 (RAC-beta serine/threonine-protein kinase (Homo sapiens)).
A: > 6.30

Q: Enter measured pIC50, system RAC-beta serine/threonine-protein kinase (Homo sapiens), for the molecule shown: C[C@]1(O)C[C@@](N)(c2ccc(-c3nc4c(cc3-c3ccccc3)N(CC(F)(F)F)C(=O)CO4)cc2)C1
A: ≥ 7.00

Q: GET pIC50 | system: RAC-beta serine/threonine-protein kinase (Homo sapiens) | item: Cn1ncc(Cl)c1-c1ccc2c(c1)CN([C@H](CN)Cc1cccc(-c3cncnc3)c1)C2=O
A: < 5.30

Q: Check RAC-beta serine/threonine-protein kinase (Homo sapiens) data and give pIC50 for NC1(c2ccc(-c3nc4c(cc3-c3ccccc3)NCCO4)cc2)CCC1 .
A: 5.00 to 6.00

Q: Enter recorded pIC50 with RAC-beta serine/threonine-protein kinase (Homo sapiens) for C[C@@H]1CC(=O)Nc2ncnc(N3CC4CCC(C3)N4C(=O)[C@H](CNC3CC3)c3ccc(Cl)cc3)c21 here.
A: 7.64

Further cases:
Q: State, for RAC-beta serine/threonine-protein kinase (Homo sapiens), measured pIC50 of the molecule listed here: O=C(Nc1cccc(C(F)(F)F)c1)N1CCN(c2ncnc3[nH]nc(Br)c23)CC1
A: < 5.70

Q: Retrieve pIC50 on RAC-beta serine/threonine-protein kinase (Homo sapiens); query NC1(c2ccc(-c3nc4c(cc3-c3ccccc3)-n3c(nnc3C3CC3)CO4)cc2)CCC1
A: 6.00 to 7.00

Q: Under RAC-beta serine/threonine-protein kinase (Homo sapiens), report pIC50 for NC[C@H](Cc1ccc(Cl)cc1)NC(=O)c1cc2c(s1)CCCn1ncc(Cl)c1-2
A: 6.97

Q: Answer briefly: pIC50 recorded on RAC-beta serine/threonine-protein kinase (Homo sapiens) for CNC[C@H](Cc1cccc(F)c1)NC(=O)c1cc2c(s1)CCCn1ncc(Cl)c1-2
A: 6.01

Q: Jot down pIC50 (RAC-beta serine/threonine-protein kinase (Homo sapiens)) of Cn1nccc1-c1ccc2c(c1)CN([C@H](CN)Cc1cccnc1)C2=O .
A: > 6.30

Q: Fill in: pIC50 on RAC-beta serine/threonine-protein kinase (Homo sapiens), entry NC1(c2ccc(-c3nc4c(cc3-c3ccccc3)-n3c(nnc3C(F)(F)F)CO4)cc2)CCC1
A: 5.00 to 6.00

Q: Jot down pIC50 (RAC-beta serine/threonine-protein kinase (Homo sapiens)) of NC1(c2ccc(-c3nc4c(cc3-c3ccccc3)C(=O)CCCC4)cc2)CCC1 .
A: 5.00 to 6.00

Q: Check RAC-beta serine/threonine-protein kinase (Homo sapiens) data and give pIC50 for CN1C(=O)COc2nc(-c3ccc(C4(N)CCC4)cc3)c(-c3ccsc3)cc21 .
A: 5.00 to 6.00

Q: State the measured pIC50 (RAC-beta serine/threonine-protein kinase (Homo sapiens)) of CN(C)c1ccc(CN2CCN(c3ncnc4[nH]nc(Br)c34)CC2)cc1
A: < 5.70

Q: Under RAC-beta serine/threonine-protein kinase (Homo sapiens), report pIC50 for NC1(c2ccc(-c3nc4n(c3-c3ccccc3)COc3ccncc3-4)cc2)CCC1
A: 8.77

Q: Enter measured pIC50, system RAC-beta serine/threonine-protein kinase (Homo sapiens), for the molecule shown: CCC(C)N1CCN(c2ncnc3[nH]nc(Br)c23)CC1 (centres unmarked)
A: < 5.70

Q: Report value: pIC50, system: RAC-beta serine/threonine-protein kinase (Homo sapiens), molecule: Brc1n[nH]c2ncnc(N3CCN(CCCN4CCCC4)CC3)c12
A: < 5.70

====

// merged dataset of IC50 values, system = RAC-beta serine/threonine-protein kinase (Homo sapiens, UniProt P31751), multiple refs

Q: Give reported IC50 value for NC1(c2ccc(-c3nc4c(cc3-c3ccccc3)N(Cc3cscn3)C(=O)CO4)cc2)CCC1
A: 100 to 1000 nM

Q: Consider the molecule Fc1cccc(Cl)c1CN1CCN(c2ncnc3[nH]nc(Br)c23)CC1 . State its measured IC50.
A: > 2000 nM

Q: Please indicate IC50 recorded for CCn1nccc1-c1ccc2c(c1)CN([C@H](CN)Cc1cc(F)cc(F)c1)C2=O
A: < 500 nM

Q: Assign IC50 to the following record: NC[C@H](Cc1cccc(C(F)(F)F)c1)NC(=O)c1cc2c(s1)CCCn1ncc(Cl)c1-2
A: 66 nM

Q: Hello, please tell me recorded IC50 for this one: NC[C@H](Cc1ccc(F)c(F)c1)NC(=O)c1cc2c(s1)OCCn1ncc(Cl)c1-2
A: 57 nM

Q: Give recorded IC50. Cn1nccc1-c1ccc2c(n1)CN([C@H](CN)Cc1cccc(F)c1)C2=O
A: 500 to 5000 nM

Q: For the molecule N#CCN1CCc2nc(-c3ccc(C4(N)CCC4)cc3)c(-c3ccccc3)cc2C1=O , give its measured IC50 value.
A: 100 to 1000 nM

Q: Provide IC50 value for the following molecule: Cn1ncc(COCC2CC2)c1-c1ccc2c(c1)CN([C@H](CN)Cc1cccc(F)c1)C2=O
A: < 500 nM

====

Recorded IC50 for compounds tested on RAC-beta serine/threonine-protein kinase (Homo sapiens), drawn from a number of studies.

Reference set (2 entries):
Q: Identify measured IC50 obtained with RAC-beta serine/threonine-protein kinase (Homo sapiens) for CCN1C(=O)COc2nc(-c3ccc([C@]4(N)C[C@@H](O)C4)cc3)c(-c3ccccc3)cc21 .
A: 0.1 to 1 µM

Q: Please indicate recorded IC50 of NC[C@H](Cc1cccc(F)c1)NC(=O)c1cc2c(s1)CCCn1ncc(C(F)(F)F)c1-2 measured with RAC-beta serine/threonine-protein kinase (Homo sapiens).
A: 0.304 µM

Continuing:
Q: Look up RAC-beta serine/threonine-protein kinase (Homo sapiens) data: IC50 of NC1(c2ccc(-c3nc4c(cc3-c3ccccc3)-n3c(n[nH]c3=O)CO4)cc2)CCC1 , then report it.
A: 0.1 to 1 µM

Q: // fetch IC50 for O=C(c1ccc(Cl)cc1)C1CCN(c2ncnc3[nH]nc(Br)c23)CC1 ; system: RAC-beta serine/threonine-protein kinase (Homo sapiens)
A: > 2 µM

Q: State, for RAC-beta serine/threonine-protein kinase (Homo sapiens), measured IC50 of the compound listed here: COCC1Oc2nc(-c3ccc(C4(N)CCC4)cc3)c(-c3ccccc3)cc2N(CC#N)C1=O (centres unmarked)
A: 0.1 to 1 µM

Q: // output IC50; input COc1ccc(CN2CCN(c3ncnc4[nH]nc(Br)c34)CC2)c(OC)c1OC ; system RAC-beta serine/threonine-protein kinase (Homo sapiens)
A: > 2 µM

Q: Fill in IC50 for Cn1ncc(Cl)c1-c1ccc2c(c1)CN(C(CN)c1cccc(F)c1)C2=O (centres unmarked) tested with RAC-beta serine/threonine-protein kinase (Homo sapiens).
A: 0.5 to 5 µM

Q: Using RAC-beta serine/threonine-protein kinase (Homo sapiens) as the test system, report measured IC50 of NC1(c2ccc(-c3nc4c(cc3-c3ccccc3)N(Cc3ncc[nH]3)C(=O)CO4)cc2)CCC1 .
A: 0.1 to 1 µM

====

RAC-beta serine/threonine-protein kinase (Homo sapiens, UniProt P31751) IC50, compiled from various sources.

Known results for compounds:
Q: Provide IC50, recorded with RAC-beta serine/threonine-protein kinase (Homo sapiens, UniProt P31751), of COCCCN1CCN(c2ncnc3[nH]nc(Br)c23)CC1
A: > 2 µM

Q: Lab note: RAC-beta serine/threonine-protein kinase (Homo sapiens, UniProt P31751) assay, enter IC50 for COc1cc(OC)nc(C(c2ccccc2)N2CCN(c3ncnc4[nH]nc(Br)c34)CC2)n1 (centres unmarked) here
A: > 2 µM

Q: System RAC-beta serine/threonine-protein kinase (Homo sapiens, UniProt P31751). Read-out IC50. Item CN1C(=O)COc2nc(-c3ccc(C4(N)CCC4)cc3)c(-c3ccc(F)cc3)cc21 . Report value.
A: 1 to 10 µM

Next:
Q: Lab note: record IC50 of Cn1nccc1-c1ccc2c(c1)CN(C(CN)c1cccc(F)c1)C2=O (centres unmarked) tested on RAC-beta serine/threonine-protein kinase (Homo sapiens, UniProt P31751).
A: < 0.5 µM

Q: Jot down IC50 (RAC-beta serine/threonine-protein kinase (Homo sapiens, UniProt P31751)) of Cn1cc(-c2cccc(C[C@@H](CN)N3Cc4cc(-c5ccnn5C)ccc4C3=O)c2)cn1 .
A: 0.5 to 5 µM

Q: Report IC50 on RAC-beta serine/threonine-protein kinase (Homo sapiens, UniProt P31751) for this entry: CCOCc1cnn(C)c1-c1ccc2c(c1)CN([C@H](CN)Cc1cc(F)cc(F)c1)C2=O
A: < 0.5 µM

Q: Please report the measured IC50 for CNC[C@H](Cc1cccc(F)c1)N1Cc2cc(-c3c(Cl)cnn3C)ccc2C1=O tested on RAC-beta serine/threonine-protein kinase (Homo sapiens, UniProt P31751).
A: 0.5 to 5 µM

Q: GET IC50 | system: RAC-beta serine/threonine-protein kinase (Homo sapiens, UniProt P31751) | item: Cc1cnn2c1-c1cc(C(=O)N[C@H](CN)Cc3cccc(F)c3)sc1CCC2
A: 0.026 µM
